# study_system: BRD1 (Homo sapiens, UniProt O95696)
# Construct: T7 phage strains displaying bromodomains were grown in parallel
# Sequence (O95696 562-666 limits assumed): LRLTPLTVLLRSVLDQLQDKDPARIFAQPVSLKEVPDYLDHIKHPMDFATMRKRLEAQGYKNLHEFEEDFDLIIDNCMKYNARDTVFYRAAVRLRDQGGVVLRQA
# procedure_text: BromoKdMAX (BROMOscan, DiscoverX)
measurement_label: Kd

Incoming: Form field - read-out: Kd; system: BRD1 (Homo sapiens, UniProt O95696); submitted item: COc1cncc(-c2cc(Nc3cccc(F)c3)nc([C@@H]3CC[C@H](C)N(C(C)=O)C3)n2)c1 [Compound 00004]
Outgoing: > 10 µM

* * *

Please respond with reported EC50 for every item in the list.
# Test system: A375 cells
# procedure_text: Assay 1: A375 cells treated with S1152, S1008 and compound, immunofluorescence (sc-365823) signal
# Type: cell-based
# measurement_parameters: 1 μM S1152 + 0.5 μM S1008, one day
# Procedure: One thousand four hundred A375 cells were seeded in each well of a 384 well microplate. […] After one hour at ambient temperature in the dark, signal in wells was measured with a Acumen Cellista. […] Signal in FL2 (500-530 nm) was measured in defined objects. […]

Incoming: Form field - read-out: EC50; system: A375 cells; submitted item: CC(=O)N1C[C@H](c2nc(Nc3cc(F)cc(N4CCOCC4)c3)cc(-c3cnccn3)n2)CC[C@@H]1C
Outgoing: < 200 nM

Incoming: Form field - read-out: EC50; system: A375 cells; submitted item: CC(=O)Nc1cccc(Nc2cc(-c3cccnc3)nc([C@@H]3CC[C@H](C)N(C(C)=O)C3)n2)c1
Outgoing: < 200 nM

Incoming: Form field - read-out: EC50; system: A375 cells; submitted item: CC(=O)N1C[C@H](c2nc(Nc3cc(F)cc(-c4cn(C)nn4)c3)cc(-c3cnccn3)n2)CC[C@@H]1C
Outgoing: < 200 nM
